Experiment: Binding affinity to human plasma alpha-thrombin exosite-2 using spectrozyme TH as substrate after overnight incubation at 25 degC by spectrophotometric analysis in presence of 10 uM heparin octasaccharide
Type: cell-free
quantity: IC50

Given the compound CCOC(=O)c1c(C)oc2cc(OC)c(OCc3oc4cc(OC)c(OCc5oc6cc(OC)c(OS(=O)(=O)[O-])cc6c5C(=O)OCC)cc4c3C(=O)OCC)cc12.[Na+] , what is its reported IC50?
1.6 µM

###

Assay: Inhibition of human plasma alpha-thrombin assessed as spectrozyme TH hydrolysis preincubated for 10 mins by spectrophotometric analysis
Format: cell-free
Conditions: read-out: pIC50 (converted)
quantity: IC50 (µM)
Use µM as the unit, but write only the number.

Quick check: IC50 of CCOC(=O)c1c(C)oc2cc(OC)c(OCc3oc4cc(OC)c(OCc5oc6cc(OC)c(OS(=O)(=O)[O-])cc6c5C(=O)OCC)cc4c3C(=O)OCC)cc12.[Na+] ?
0.676

Continuing:
Entry C=CCOC(=O)c1c(C)oc2cc(OC)c(OCc3oc4cc(OC)c(OCc5oc6cc(OC)c(OS(=O)(=O)O)cc6c5C(=O)OCC)cc4c3C(=O)OCC)cc12 : reported IC50 = ?
30.9

Input CCOC(=O)c1c(C)oc2cc(OC)c(OCc3oc4cc(OC)c(OCc5oc6cc(OC(C)C)c(OS(=O)(=O)O)cc6c5C(=O)OCC)cc4c3C(=O)OCC)cc12
100

###

Test: Binding affinity to human plasma alpha-thrombin exosite-2 using spectrozyme TH as substrate after overnight incubation at 25 degC by spectrophotometric analysis in presence of 6.5 uM gamma'-fibrinogen peptide
Type: cell-free
quantity: pIC50
Reminder that pIC50 means the negative base-10 logarithm of the concentration expressed in mol/L.

Could you share which pIC50 value was measured for CCOC(=O)c1c(C)oc2cc(OC)c(OCc3oc4cc(OC)c(OCc5oc6cc(OC)c(OS(=O)(=O)[O-])cc6c5C(=O)OCC)cc4c3C(=O)OCC)cc12.[Na+] ?
5.89

###

Biological target: Prothrombin (Homo sapiens)
Test: Inhibition of wild type recombinant human thrombin expressed in BHK cells using S2238 as substrate after overnight incubation at 25 degC
Conditions: read-out: IC50
quantity: pIC50
The meaning of pIC50 here: minus log10 of the concentration in molar units.

What value of measured pIC50 is listed for CCOC(=O)c1c(C)oc2cc(OC)c(OCc3oc4cc(OC)c(OCc5oc6cc(OC)c(OS(=O)(=O)[O-])cc6c5C(=O)OCC)cc4c3C(=O)OCC)cc12.[Na+] ?
6.59

###

Experiment: Inhibition of recombinant human thrombin K235A mutant expressed in BHK cells using S2238 as substrate after overnight incubation at 25 degC
quantity: IC50 (µM)
Number in µM, nothing else.

What does the record list as IC50 for CCOC(=O)c1c(C)oc2cc(OC)c(OCc3oc4cc(OC)c(OCc5oc6cc(OC)c(OS(=O)(=O)[O-])cc6c5C(=O)OCC)cc4c3C(=O)OCC)cc12.[Na+] ?
0.27

###

Experiment: Binding affinity to human plasma alpha-thrombin exosite-1 using spectrozyme TH as substrate after overnight incubation at 25 degC by spectrophotometric analysis in presence of 15 nM hirugen peptide
Type: cell-free
quantity: pIC50
Friendly reminder that pIC50 comes from taking -log10 of the concentration in mol/L.

State the recorded pIC50 for this entry: CCOC(=O)c1c(C)oc2cc(OC)c(OCc3oc4cc(OC)c(OCc5oc6cc(OC)c(OS(=O)(=O)[O-])cc6c5C(=O)OCC)cc4c3C(=O)OCC)cc12.[Na+]
6.05

###

Organism: Homo sapiens
Assay: Inhibition of human plasma alpha-thrombin assessed as spectrozyme TH hydrolysis at 1 to 900 uM preincubated for 10 mins by spectrophotometric analysis relative to control
Format: cell-free
quantity: Efficacy (%)
Lab book: enter the figure in %, no units written.

Use these answered entries as a reference point.
# lookup: Efficacy of CCOC(=O)c1c(C)oc2cc(OC)c(OCc3oc4cc(OC)c(OCc5oc6cc(OS(=O)(=O)O)c(OC)cc6c5C(=O)OCC)cc4c3C(=O)OCC)cc12
91

And CCOC(=O)c1c(C)oc2cc(OC)c(OCc3oc4cc(OC)c(OCc5oc6cc(OC)c(OS(=O)(=O)O)cc6c5C(=O)OC)cc4c3C(=O)OCC)cc12 ?
39

Consider next the molecule CCOC(=O)c1c(COc2cc3c(C(=O)O)c(C)oc3cc2OC)oc2cc(OC)c(OCc3oc4cc(OC)c(OS(=O)(=O)O)cc4c3C(=O)OCC)cc12 in the same way.
49

Now this one: CCOC(=O)c1c(C)oc2cc(OC)c(OCc3oc4cc(OC)c(OCc5oc6cc(OC)c(OS(=O)(=O)[O-])cc6c5C(=O)OCC)cc4c3C(=O)OCC)cc12.[Na+]
80

Now try CCOC(=O)c1c(C)oc2cc(OC)c(OCc3oc4cc(OC)c(OCc5oc6cc(OCC)c(OS(=O)(=O)O)cc6c5C(=O)OCC)cc4c3C(=O)OCC)cc12 .
43

Further cases:
Endpoint output: Efficacy of C=CCOC(=O)c1c(C)oc2cc(OC)c(OCc3oc4cc(OC)c(OCc5oc6cc(OC)c(OS(=O)(=O)O)cc6c5C(=O)OCC)cc4c3C(=O)OCC)cc12 . Value?
53

How about CCOC(=O)c1c(C)oc2cc(OC)c(OCc3oc4cc(OC)c(OCc5oc6cc(OC(C)C)c(OS(=O)(=O)O)cc6c5C(=O)OCC)cc4c3C(=O)OCC)cc12 ?
26

Also need CCOC(=O)c1c(C)oc2cc(OC)c(OCc3oc4cc(OC)c(OCc5oc6cc(OC)c(OS(=O)(=O)O)cc6c5C(=O)OC(C)(C)C)cc4c3C(=O)OCC)cc12 , thanks.
94

###

Molecular target: Coagulation factor X (Homo sapiens) (UniProt P00742)
Sequence (P00742 41-179 limits assumed): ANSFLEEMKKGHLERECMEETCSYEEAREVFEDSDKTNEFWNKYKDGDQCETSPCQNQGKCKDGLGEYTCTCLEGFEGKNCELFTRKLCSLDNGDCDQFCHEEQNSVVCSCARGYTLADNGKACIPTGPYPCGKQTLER
Sequence (P00742 235-488 limits assumed): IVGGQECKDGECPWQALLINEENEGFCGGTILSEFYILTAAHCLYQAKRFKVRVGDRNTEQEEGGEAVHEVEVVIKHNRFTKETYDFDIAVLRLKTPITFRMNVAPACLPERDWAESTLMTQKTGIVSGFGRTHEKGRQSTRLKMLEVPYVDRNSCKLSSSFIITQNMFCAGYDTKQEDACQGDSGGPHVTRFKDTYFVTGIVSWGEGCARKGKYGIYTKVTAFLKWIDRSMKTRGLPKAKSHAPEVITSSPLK
Experiment: Inhibition of human factor 10a at 365 uM
The source made the active and inactive calls. No cut-off for these calls is given here.
quantity: inhibition

Fill blank: measured inhibition of the molecule CCOC(=O)c1c(C)oc2cc(OC)c(OCc3oc4cc(OC)c(OCc5oc6cc(OCC)c(OS(=O)(=O)O)cc6c5C(=O)OCC)cc4c3C(=O)OCC)cc12 is ____.
inactive

Okay, and CCOC(=O)c1c(C)oc2cc(OC)c(OCc3oc4cc(OC)c(OCc5oc6cc(OC(C)C)c(OS(=O)(=O)O)cc6c5C(=O)OCC)cc4c3C(=O)OCC)cc12 ?
inactive

Also check CCOC(=O)c1c(C)oc2cc(OC)c(OCc3oc4cc(OC)c(OCc5oc6cc(OC)c(OCc7oc8cc(OC)c(OS(=O)(=O)C(C)(C)C)cc8c7C(=O)OCC)cc6c5C(=O)OCC)cc4c3C(=O)OCC)cc12
inactive

###

Assay: Binding affinity to human plasma alpha-thrombin exosite-2 using spectrozyme TH as substrate after overnight incubation at 25 degC by spectrophotometric analysis in presence of 0.2 uM gamma'-fibrinogen peptide
Type: cell-free
quantity: IC50 (µM)
Write the value in µM as a bare number.

Record request: IC50 value, item CCOC(=O)c1c(C)oc2cc(OC)c(OCc3oc4cc(OC)c(OCc5oc6cc(OC)c(OS(=O)(=O)[O-])cc6c5C(=O)OCC)cc4c3C(=O)OCC)cc12.[Na+]
1.2

###

Assay: Inhibition of recombinant human thrombin R126A mutant expressed in BHK cells using S2238 as substrate after overnight incubation at 25 degC
quantity: pIC50
Units for pIC50: none; it is -log10 of a concentration expressed in mol/L.

Returns the measured pIC50 for the input compound. Input: CCOC(=O)c1c(C)oc2cc(OC)c(OCc3oc4cc(OC)c(OCc5oc6cc(OC)c(OS(=O)(=O)[O-])cc6c5C(=O)OCC)cc4c3C(=O)OCC)cc12.[Na+]
6.54

###

Test: Inhibition of recombinant human thrombin R93A mutant expressed in BHK cells using S2238 as substrate after overnight incubation at 25 degC
quantity: pIC50
pIC50 here is simply -log10 of the concentration when that concentration is written in mol/L.

Which pIC50 is listed for CCOC(=O)c1c(C)oc2cc(OC)c(OCc3oc4cc(OC)c(OCc5oc6cc(OC)c(OS(=O)(=O)[O-])cc6c5C(=O)OCC)cc4c3C(=O)OCC)cc12.[Na+] ?
6.72

###

Assay: Inhibition of recombinant human thrombin K236A mutant expressed in BHK cells using S2238 as substrate after overnight incubation at 25 degC
quantity: pIC50
pIC50 (log units): -log10 of the concentration in mol/L.

Return reported pIC50; argument: CCOC(=O)c1c(C)oc2cc(OC)c(OCc3oc4cc(OC)c(OCc5oc6cc(OC)c(OS(=O)(=O)[O-])cc6c5C(=O)OCC)cc4c3C(=O)OCC)cc12.[Na+]
6.40
